- test_details: Therapeutic index, ratio of TC50 for human HeLa cells to IC50 for Plasmodium falciparum RKL9
- Type: cell-based
- details: read-out: TI
property_label: selectivity ratio

>>> reading("COc1cc(/C=C/C(=O)c2cc3ccccc3oc2=O)cc(OC)c1OC")
"> 50"
>>> reading("COc1ccc(C2CC(c3cc4ccccc4oc3=O)=NN2C(C)=O)cc1OC (stereo not given)")
"> 10"
>>> reading("COc1ccc(/C=C/C(=O)c2cc3ccccc3oc2=O)c(OC)c1OC")
90.9
>>> reading("COc1cccc(/C=C/C(=O)c2cc3ccccc3oc2=O)c1")
"> 20"
>>> reading("COc1ccc(C2CC(c3cc4ccccc4oc3=O)=NN2c2ccccc2)cc1OC (stereo not given)")
"> 13"
